These entries and their values trace back to ChEMBL document CHEMBL1142666.

System: CCRF-CEM
Experiment: Cytostatic concentration required to inhibit CEM cell proliferation
Format: functional
Conditions: Homo sapiens
Rule: CC50 below 5 µM gives Criterion met. Equal to or above 5 µM gives Criterion not met.

Solved cases (8 shown):
compound=COC(=O)CC(=O)NC1=CS(=O)(=O)O[C@@]12[C@@H](CO[Si](C)(C)C(C)(C)C)O[C@@H](n1cc(C)c(=O)n(C)c1=O)[C@@H]2O[Si](C)(C)C(C)(C)C assigned_class="Criterion not met"
compound=Cc1cn([C@@H]2O[C@H](CO[Si](C)(C)C(C)(C)C)[C@@]3(OS(=O)(=O)C=C3NC(N)=O)[C@H]2O[Si](C)(C)C(C)(C)C)c(=O)n(C)c1=O assigned_class="Criterion met"
compound=Cc1cn([C@@H]2O[C@H](CO[Si](C)(C)C(C)(C)C)[C@@]3(OS(=O)(=O)C=C3NCC(=O)OCc3ccccc3)[C@H]2O[Si](C)(C)C(C)(C)C)c(=O)n(C)c1=O assigned_class="Criterion not met"
compound=CCNC(=O)NC1=CS(=O)(=O)O[C@@]12[C@@H](CO[Si](C)(C)C(C)(C)C)O[C@@H](n1cc(C)c(=O)n(C)c1=O)[C@@H]2O[Si](C)(C)C(C)(C)C assigned_class="Criterion met"
compound=Cc1cn([C@@H]2O[C@H](CO[Si](C)(C)C(C)(C)C)[C@@]3(OS(=O)(=O)C=C3NCCC(=O)OCc3ccccc3)[C@H]2O[Si](C)(C)C(C)(C)C)c(=O)n(C)c1=O assigned_class="Criterion not met"
compound=COC(=O)C(=O)NC1=CS(=O)(=O)O[C@@]12[C@@H](CO[Si](C)(C)C(C)(C)C)O[C@@H](n1cc(C)c(=O)n(C)c1=O)[C@@H]2O[Si](C)(C)C(C)(C)C assigned_class="Criterion not met"
compound=Cc1cn([C@@H]2O[C@H](CO[Si](C)(C)C(C)(C)C)[C@@]3(OS(=O)(=O)C=C3NC(=O)C(N)=O)[C@H]2O[Si](C)(C)C(C)(C)C)c(=O)n(C)c1=O assigned_class="Criterion not met"
compound=COC(=O)CNC1=CS(=O)(=O)O[C@@]12[C@@H](CO[Si](C)(C)C(C)(C)C)O[C@@H](n1cc(C)c(=O)n(C)c1=O)[C@@H]2O[Si](C)(C)C(C)(C)C assigned_class="Criterion not met"

Lab note: CC50 threshold 5 µM. Does this compound come in strictly under it? Cc1cn([C@@H]2O[C@H](CO[Si](C)(C)C(C)(C)C)[C@@]3(OS(=O)(=O)C=C3NC(=O)NC(=O)c3ccccc3)[C@H]2O[Si](C)(C)C(C)(C)C)c(=O)n(C)c1=O
Criterion met

Lab note: CC50 threshold 5 µM. Does this compound come in strictly under it? Cc1cn([C@@H]2O[C@@H]3COC4(O)CS(=O)(=O)O[C@@]34[C@H]2O[Si](C)(C)C(C)(C)C)c(=O)[nH]c1=O (some centres not stated)
Criterion not met

Lab note: CC50 threshold 5 µM. Does this compound come in strictly under it? COC(=O)NC1=CS(=O)(=O)O[C@@]12[C@@H](CO[Si](C)(C)C(C)(C)C)O[C@@H](n1cc(C)c(=O)n(C)c1=O)[C@@H]2O[Si](C)(C)C(C)(C)C
Criterion not met
